# subject-of-test: T1, full-length recombinant mouse PAD4 (mouse, UniProt Q9Z183 1-666)
# T1 construct: mature; Full-length recombinant
# test-name: ELISA, coated mouse PAD4; antibody 0.0002441 ug/mL
Think of 0.2 as a floor: if OD 490/630 nm stands on it or above, it is 1 (yes); beneath it, 0 (no).

Item A11 (antibody, V domains shown, Chicken variable regions in a mouse chimeric antibody (IgG1); also called anti-PAD4 antibody A11) VH: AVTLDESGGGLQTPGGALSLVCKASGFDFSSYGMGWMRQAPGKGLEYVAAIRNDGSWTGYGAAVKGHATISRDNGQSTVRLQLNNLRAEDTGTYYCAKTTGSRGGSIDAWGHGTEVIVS VL: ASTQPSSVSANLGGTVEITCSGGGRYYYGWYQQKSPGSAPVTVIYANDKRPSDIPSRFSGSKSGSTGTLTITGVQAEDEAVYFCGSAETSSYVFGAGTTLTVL with OD 490/630 nm of 0.2 or above?
0 (no)

Entry H7 (antibody, V domains shown, Chicken variable regions in a mouse chimeric antibody (IgG1); also called anti-PAD4 antibody H7) VH: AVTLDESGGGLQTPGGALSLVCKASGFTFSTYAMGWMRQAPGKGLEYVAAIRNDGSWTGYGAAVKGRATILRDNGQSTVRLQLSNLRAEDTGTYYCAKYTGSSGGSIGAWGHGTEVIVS VL: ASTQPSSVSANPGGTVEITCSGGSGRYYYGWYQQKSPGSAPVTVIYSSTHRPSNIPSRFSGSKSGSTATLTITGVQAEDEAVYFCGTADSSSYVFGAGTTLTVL : is its OD 490/630 nm no less than 0.2?
1 (yes)

Check if OD 490/630 nm >= 0.2 (inclusive). Item: G9 (antibody, V domains shown, Chicken variable regions in a mouse chimeric antibody (IgG1); also called anti-PAD4 antibody G9) VH: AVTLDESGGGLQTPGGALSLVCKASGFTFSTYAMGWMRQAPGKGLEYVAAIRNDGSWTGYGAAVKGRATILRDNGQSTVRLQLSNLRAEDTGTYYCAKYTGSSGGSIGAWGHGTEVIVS VL: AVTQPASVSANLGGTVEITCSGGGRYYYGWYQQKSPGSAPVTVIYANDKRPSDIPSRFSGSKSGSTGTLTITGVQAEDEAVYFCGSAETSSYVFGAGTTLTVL
0 (no)

Is OD 490/630 nm for G6 (antibody, V domains shown, Chicken variable regions in a mouse chimeric antibody (IgG1); also called anti-PAD4 antibody G6) VH: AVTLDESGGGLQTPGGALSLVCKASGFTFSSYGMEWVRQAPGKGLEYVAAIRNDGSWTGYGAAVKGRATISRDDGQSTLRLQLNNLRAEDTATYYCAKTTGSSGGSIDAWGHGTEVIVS VL: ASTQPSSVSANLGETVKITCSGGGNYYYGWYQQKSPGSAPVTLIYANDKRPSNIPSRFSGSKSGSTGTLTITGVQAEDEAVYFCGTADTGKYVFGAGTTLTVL at or above 0.2?
0 (no)

API: above_or_equal(metric=OD 490/630 nm, cutoff=0.2) for item E9 (antibody, V domains shown, Chicken variable regions in a mouse chimeric antibody (IgG1); also called anti-PAD4 antibody E9) VH: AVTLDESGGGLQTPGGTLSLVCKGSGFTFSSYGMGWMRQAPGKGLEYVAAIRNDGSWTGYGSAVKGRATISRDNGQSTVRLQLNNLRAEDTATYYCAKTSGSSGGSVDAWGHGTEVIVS VL: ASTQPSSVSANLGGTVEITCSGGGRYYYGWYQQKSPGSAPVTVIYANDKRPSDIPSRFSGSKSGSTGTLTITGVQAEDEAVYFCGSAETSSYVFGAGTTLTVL
0 (no)
